target under test: ZFP SBS#1297 (synthetic)
Sequence (chain, as listed by the source): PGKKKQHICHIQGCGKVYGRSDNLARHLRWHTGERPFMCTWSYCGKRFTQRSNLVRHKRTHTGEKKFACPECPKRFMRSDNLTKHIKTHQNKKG
assay explanation: EMSA
run parameters: tags: MBP fusion
measured quantity: Kd
Answer as a quantity: numeral, then unit.

State its Kd: TAGGAAGAG (dsDNA) DNA 1: TAGGAAGAG DNA 2: CTCTTCCTA
0.05 nM
